- Target: PDGFRβ (Homo sapiens, UniProt P09619)
- Sequence (P09619 33-1106): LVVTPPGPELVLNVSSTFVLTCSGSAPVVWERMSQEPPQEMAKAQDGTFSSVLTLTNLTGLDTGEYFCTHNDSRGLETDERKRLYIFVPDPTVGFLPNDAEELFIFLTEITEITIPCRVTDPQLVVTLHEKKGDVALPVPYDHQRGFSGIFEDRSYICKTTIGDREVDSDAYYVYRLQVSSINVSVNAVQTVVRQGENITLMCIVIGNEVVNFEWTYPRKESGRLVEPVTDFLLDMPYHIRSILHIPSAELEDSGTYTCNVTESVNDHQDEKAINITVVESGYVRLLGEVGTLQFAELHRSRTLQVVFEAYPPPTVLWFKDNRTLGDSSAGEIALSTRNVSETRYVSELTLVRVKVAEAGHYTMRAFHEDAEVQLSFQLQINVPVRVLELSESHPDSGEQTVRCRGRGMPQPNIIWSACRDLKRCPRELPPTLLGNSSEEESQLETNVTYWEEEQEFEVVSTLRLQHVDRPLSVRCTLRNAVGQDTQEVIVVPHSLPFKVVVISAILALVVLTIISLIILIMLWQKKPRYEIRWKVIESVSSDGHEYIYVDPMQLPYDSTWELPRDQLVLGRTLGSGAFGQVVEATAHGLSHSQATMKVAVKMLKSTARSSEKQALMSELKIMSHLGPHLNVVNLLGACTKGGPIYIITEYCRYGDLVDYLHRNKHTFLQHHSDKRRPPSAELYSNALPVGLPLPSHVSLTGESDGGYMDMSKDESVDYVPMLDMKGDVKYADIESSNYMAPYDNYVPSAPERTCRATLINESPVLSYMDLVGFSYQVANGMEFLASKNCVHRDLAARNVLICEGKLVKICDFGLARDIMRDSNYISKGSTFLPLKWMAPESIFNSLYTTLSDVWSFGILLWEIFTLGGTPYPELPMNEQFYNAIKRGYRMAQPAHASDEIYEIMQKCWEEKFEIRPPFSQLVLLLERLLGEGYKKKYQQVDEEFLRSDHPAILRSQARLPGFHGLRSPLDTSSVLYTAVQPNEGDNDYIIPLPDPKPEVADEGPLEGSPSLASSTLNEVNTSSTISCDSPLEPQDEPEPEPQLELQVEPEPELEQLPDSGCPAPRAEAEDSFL
- Experiment description: PDGFR kinase assay, Caliper microfluidic mobility shift
- Format: biochemical
- Stated conditions: compound at 1 µM; averages of two separate experiments

Cpd smiles: COc1ccc(C(=O)Nc2ccc(C)c(Oc3nccc(-c4ccco4)n3)c2)cc1
Unit text: %
Inhibition effect (%) PDGFRβ: 37.72
//
Cpd smiles: COc1ccc(C(=O)Nc2ccc(C)c(Oc3nccc(-c4cccnc4)n3)c2)cc1
Unit text: %
Inhibition effect (%) PDGFRβ: 33.70
//
Cpd smiles: Cc1ccc(NC(=O)c2ccc(F)cc2)cc1Oc1nccc(-c2ccccc2)n1
Unit text: %
Inhibition effect (%) PDGFRβ: 15.63
//
Cpd smiles: Cc1ccc(NC(=O)c2ccc(Cl)cc2)cc1Oc1nccc(-c2ccccc2)n1
Unit text: %
Inhibition effect (%) PDGFRβ: 18.64
//
Cpd smiles: Cc1ccc(NC(=O)Cc2ccccc2)cc1Oc1nccc(-c2cccnc2)n1
Unit text: %
Inhibition effect (%) PDGFRβ: 40.73

* * *

- System: SNU368
- Experiment description: CellTiter-Glo luminescent cell viability assay
- Assay type: cell-based
- Stated conditions: 120 h incubation, read-out: Anti-proliferative activity IC50 SNU368
pIC50: −log10 of the molar value.
Parameter: pIC50. Scope: all listed entries.
Parameter measured: pIC50

Molecule: COc1ccc(C(=O)Nc2ccc(C)c(Oc3nccc(-c4ccco4)n3)c2)cc1
Numeric readout: 4.65
--
Molecule: CCC(=O)Nc1ccc(C)c(Oc2nccc(-c3cc4ccccc4o3)n2)c1 [E2]
Numeric readout: 4.88
--
Molecule: CCC(=O)Nc1ccc(C)c(Oc2nccc(-c3cccc4ccccc34)n2)c1
Numeric readout: 4.25
--
Molecule: Cc1ccc(NC(=O)c2ccc(F)cc2)cc1Oc1nccc(-c2ccccc2)n1
Numeric readout: 4.90
--
Molecule: Cc1ccc(NC(=O)CN2CCN(C)CC2)cc1Oc1nccc(-c2cc3ccccc3o2)n1
Numeric readout: 4.50
--
Molecule: Cc1ccc(NC(=O)c2ccccc2)cc1Oc1nccc(-c2ccco2)n1 [D1]
Numeric readout: 4.43
--
Molecule: Cc1ccc(NC(=O)c2ccoc2)cc1Oc1nccc(-c2cccc3ccccc23)n1
Numeric readout: 4.80
--
Molecule: Cc1ccc(NC(=O)c2ccccc2)cc1Oc1nccc(-c2ccccc2)n1
Numeric readout: 4.75
--
Molecule: Cc1ccc(NC(=O)c2ccc(CN3CCN(C)CC3)cc2)cc1Oc1nccc(-c2cc3ccccc3o2)n1
Numeric readout: 5.05
--
Molecule: Cc1ccc(NC(=O)c2ccncc2)cc1Oc1nccc(-c2ccccc2)n1
Numeric readout: 4.74
--
Molecule: Cc1ccc(NC(=O)c2cccc(Cl)c2)cc1Oc1nccc(-c2cccnc2)n1
Numeric readout: 4.34
--
Molecule: Cc1ccc(NC(=O)c2ccoc2)cc1Oc1nccc(-c2cc3ccccc3o2)n1
Numeric readout: 4.94
--
Molecule: Cc1ccc(NC(=O)c2cccs2)cc1Oc1nccc(-c2cccc3ccccc23)n1
Numeric readout: 4.55
--
Molecule: Cc1ccc(C(=O)Nc2ccc(C)c(Oc3nccc(-c4cccnc4)n3)c2)cc1
Numeric readout: 4.29
--
Molecule: Cc1ccc(NC(=O)c2ccco2)cc1Oc1nccc(-c2cc3ccccc3o2)n1
Numeric readout: 5.89
--
Molecule: CCC(=O)Nc1ccc(C)c(Oc2nccc(-c3cc4ccccc4n3C)n2)c1
Numeric readout: 4.54
--
Molecule: Cc1ccc(NC(=O)Cc2ccccc2)cc1Oc1nccc(-c2ccccc2)n1
Numeric readout: 4.61
--
Molecule: COc1ccc(C(=O)Nc2ccc(C)c(Oc3nccc(-c4ccccc4)n3)c2)cc1
Numeric readout: 4.80
--
Molecule: Cc1ccc(NC(=O)c2ccco2)cc1Oc1nccc(-c2cccc3ccccc23)n1
Numeric readout: 4.42
--
Molecule: Cc1ccc(NC(=O)CN2CCOCC2)cc1Oc1nccc(-c2cc3ccccc3o2)n1
Numeric readout: 4.83
--
Molecule: COc1ccc(C(=O)Nc2ccc(C)c(Oc3nccc(-c4cccnc4)n3)c2)cc1
Numeric readout: 4.31
--
Molecule: CC(=O)Nc1ccc(C)c(Oc2nccc(-c3cccc4ccccc34)n2)c1
Numeric readout: 4.37
--
Molecule: Cc1ccc(NC(=O)c2cccnc2)cc1Oc1nccc(-c2cccnc2)n1
Numeric readout: 4.02
--
Molecule: Cc1ccc(NC(=O)c2ccc(Cl)cc2)cc1Oc1nccc(-c2ccco2)n1
Numeric readout: 4.90
--
Molecule: Cc1cccc(C(=O)Nc2ccc(C)c(Oc3nccc(-c4cccnc4)n3)c2)c1
Numeric readout: 4.27
--
Molecule: Cc1ccc(NC(=O)Cc2ccccc2)cc1Oc1nccc(-c2ccco2)n1 [D2]
Numeric readout: 4.36
--
Molecule: Cc1ccc(NC(=O)c2ccc([N+](=O)[O-])cc2)cc1Oc1nccc(-c2cccnc2)n1
Numeric readout: 4.59
--
Molecule: CC(=O)Nc1ccc(C)c(Oc2nccc(-c3cc4ccccc4o3)n2)c1 [E1]
Numeric readout: 5.07
--
Molecule: Cc1ccc(NC(=O)c2ccc(Cl)cc2)cc1Oc1nccc(-c2cccc3ccccc23)n1
Numeric readout: 4.76
--
Molecule: Cc1ccc(NC(=O)c2cccc([N+](=O)[O-])c2)cc1Oc1nccc(-c2ccccc2)n1
Numeric readout: 4.77
--
Molecule: Cc1cccc(C(=O)Nc2ccc(C)c(Oc3nccc(-c4ccco4)n3)c2)c1
Numeric readout: 4.63
--
Molecule: Cc1ccc(NC(=O)Cc2ccccc2)cc1Oc1nccc(-c2cccnc2)n1
Numeric readout: 3.95
--
Molecule: Cc1ccc(NC(=O)c2ccc(Cl)cc2)cc1Oc1nccc(-c2cccnc2)n1
Numeric readout: 4.62
--
Molecule: CC(=O)Nc1ccc(C)c(Oc2nccc(-c3cc4ccccc4n3C)n2)c1
Numeric readout: 4.53
--
Molecule: Cc1ccc(NC(=O)c2ccncc2)cc1Oc1nccc(-c2cccnc2)n1
Numeric readout: 3.54
--
Molecule: Cc1ccc(NC(=O)c2ccc(Cl)cc2)cc1Oc1nccc(-c2ccccc2)n1
Numeric readout: 4.82
--
Molecule: Cc1ccc(NC(=O)c2cccnc2)cc1Oc1nccc(-c2ccccc2)n1
Numeric readout: 4.74
--
Molecule: Cc1ccc(C(=O)Nc2ccc(C)c(Oc3nccc(-c4ccccc4)n3)c2)cc1
Numeric readout: 4.89

* * *

Parameter: Inhibition effect (%) PDGFRα. Scope: all listed entries.
- Target: PDGFRα (Homo sapiens, UniProt P16234)
- Sequence (P16234 24-1089): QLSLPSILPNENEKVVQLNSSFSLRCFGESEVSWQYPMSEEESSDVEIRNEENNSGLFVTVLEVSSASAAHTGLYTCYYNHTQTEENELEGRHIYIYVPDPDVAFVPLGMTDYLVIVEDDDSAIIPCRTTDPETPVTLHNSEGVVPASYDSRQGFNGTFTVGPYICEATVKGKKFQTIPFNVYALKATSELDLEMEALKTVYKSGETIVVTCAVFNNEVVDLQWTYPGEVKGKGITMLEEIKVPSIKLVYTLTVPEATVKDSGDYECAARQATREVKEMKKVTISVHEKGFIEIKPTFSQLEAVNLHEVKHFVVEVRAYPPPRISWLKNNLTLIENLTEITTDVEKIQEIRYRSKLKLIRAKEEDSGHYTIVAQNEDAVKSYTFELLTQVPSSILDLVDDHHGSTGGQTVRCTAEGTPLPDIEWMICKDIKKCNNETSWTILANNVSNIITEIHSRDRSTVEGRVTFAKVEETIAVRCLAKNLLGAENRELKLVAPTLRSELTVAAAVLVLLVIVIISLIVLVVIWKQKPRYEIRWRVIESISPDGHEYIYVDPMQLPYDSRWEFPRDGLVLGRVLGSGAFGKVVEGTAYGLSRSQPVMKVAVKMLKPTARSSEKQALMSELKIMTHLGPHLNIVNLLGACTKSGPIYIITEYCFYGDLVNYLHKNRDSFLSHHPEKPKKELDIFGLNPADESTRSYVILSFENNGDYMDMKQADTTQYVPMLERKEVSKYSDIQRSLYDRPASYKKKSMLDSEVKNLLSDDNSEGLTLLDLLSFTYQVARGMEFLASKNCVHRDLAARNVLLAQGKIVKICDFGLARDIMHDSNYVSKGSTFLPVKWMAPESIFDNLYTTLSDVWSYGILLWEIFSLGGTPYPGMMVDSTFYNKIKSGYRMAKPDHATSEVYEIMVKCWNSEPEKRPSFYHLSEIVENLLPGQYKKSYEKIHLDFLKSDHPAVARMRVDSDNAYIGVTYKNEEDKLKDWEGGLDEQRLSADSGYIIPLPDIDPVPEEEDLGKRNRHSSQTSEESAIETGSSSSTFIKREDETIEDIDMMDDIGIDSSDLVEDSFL
- Experiment description: PDGFR kinase assay, Caliper microfluidic mobility shift
- Assay type: biochemical
- Stated conditions: compound at 1 µM; averages of two separate experiments
- Experimental: In vitro inhibitory activities of all compounds at 1 μM against PDGFRα and PDGFRβ were evaluated using Caliper microfluidic mobility shift technology. […] At the same concentration, only E5 inhibited greater than 50% of PDGFRβ activity (Fig. 2B). PDGFR kinase activity was measured using Caliper microfluidic mobility shift technology. […] The electrophoretic separation of the phosphorylated and non-phosphorylated peptides was then carried out on LabChip EZ Reader II (Caliper Life Sciences). […]

Compound: CCC(=O)Nc1ccc(C)c(Oc2nccc(-c3cccc4ccccc34)n2)c1
Inhibition effect (%) PDGFRα: 33.78

Compound: Cc1ccc(C(=O)Nc2ccc(C)c(Oc3nccc(-c4ccccc4)n3)c2)cc1
Inhibition effect (%) PDGFRα: 23.12

Compound: Cc1ccc(NC(=O)Cc2ccccc2)cc1Oc1nccc(-c2ccco2)n1 [D2]
Inhibition effect (%) PDGFRα: 36.82

* * *

- System: QGY-7703
- Experiment description: CellTiter-Glo luminescent cell viability assay
- Format: cell-based
- Stated conditions: 120 h incubation, read-out: Anti-proliferative activity IC50 QGY-7703

Cpd smiles: Cc1cccc(C(=O)Nc2ccc(C)c(Oc3nccc(-c4ccccc4)n3)c2)c1
Unit text: µM
IC50: 10.2
--
Cpd smiles: Cc1ccc(NC(=O)c2cccc(Cl)c2)cc1Oc1nccc(-c2cccnc2)n1
Unit text: µM
IC50: 57.8
--
Cpd smiles: Cc1ccc(NC(=O)c2cccnc2)cc1Oc1nccc(-c2ccccc2)n1
Unit text: µM
IC50: 81.1

* * *

- Target: PDGFRβ (Homo sapiens)
- Experiment description: PDGFR kinase assay, Caliper microfluidic mobility shift
- Assay type: biochemical
- Stated conditions: compound at 1 µM; averages of two separate experiments
Parameter: Inhibition effect (%) PDGFRβ. Scope: all listed entries.
Parameter measured: Inhibition effect (%) PDGFRβ

Compound: Cc1ccc(NC(=O)c2ccncc2)cc1Oc1nccc(-c2cccnc2)n1 [A12]
Parameter measured: Inhibition effect (%) PDGFRβ
Numeric readout: 31.94

Compound: Cc1ccc(NC(=O)c2ccccc2)cc1Oc1nccc(-c2ccco2)n1 [D1]
Parameter measured: Inhibition effect (%) PDGFRβ
Numeric readout: 28.93

Compound: CC(=O)Nc1ccc(C)c(Oc2nccc(-c3cc4ccccc4n3C)n2)c1 [F1]
Parameter measured: Inhibition effect (%) PDGFRβ
Numeric readout: 2.32

Compound: Cc1ccc(NC(=O)c2ccncc2)cc1Oc1nccc(-c2ccccc2)n1 [B12]
Parameter measured: Inhibition effect (%) PDGFRβ
Numeric readout: 20.65

Compound: Cc1ccc(NC(=O)Cc2ccccc2)cc1Oc1nccc(-c2ccccc2)n1 [B2]
Parameter measured: Inhibition effect (%) PDGFRβ
Numeric readout: 17.63

Compound: Cc1ccc(NC(=O)c2cccc(Cl)c2)cc1Oc1nccc(-c2ccco2)n1 [D5]
Parameter measured: Inhibition effect (%) PDGFRβ
Numeric readout: 43.49

Compound: Cc1ccc(NC(=O)c2cccc(Cl)c2)cc1Oc1nccc(-c2ccccc2)n1 [B7]
Parameter measured: Inhibition effect (%) PDGFRβ
Numeric readout: 16.63

Compound: Cc1ccc(NC(=O)c2cccc([N+](=O)[O-])c2)cc1Oc1nccc(-c2cccnc2)n1 [A9]
Parameter measured: Inhibition effect (%) PDGFRβ
Numeric readout: 23.41

Compound: Cc1cccc(C(=O)Nc2ccc(C)c(Oc3nccc(-c4cccnc4)n3)c2)c1 [A4]
Parameter measured: Inhibition effect (%) PDGFRβ
Numeric readout: 43.74

Compound: Cc1ccc(NC(=O)c2cccc([N+](=O)[O-])c2)cc1Oc1nccc(-c2ccccc2)n1 [B9]
Parameter measured: Inhibition effect (%) PDGFRβ
Numeric readout: 19.14

Compound: Cc1ccc(NC(=O)c2ccco2)cc1Oc1nccc(-c2cc3ccccc3n2C)n1 [F3]
Parameter measured: Inhibition effect (%) PDGFRβ
Numeric readout: 25.67

Compound: Cc1ccc(NC(=O)c2cccnc2)cc1Oc1nccc(-c2ccccc2)n1 [B11]
Parameter measured: Inhibition effect (%) PDGFRβ
Numeric readout: 5.08

Compound: CCC(=O)Nc1ccc(C)c(Oc2nccc(-c3cc4ccccc4o3)n2)c1 [E2]
Parameter measured: Inhibition effect (%) PDGFRβ
Numeric readout: 10.10

Compound: CCC(=O)Nc1ccc(C)c(Oc2nccc(-c3cccc4ccccc34)n2)c1 [C2]
Parameter measured: Inhibition effect (%) PDGFRβ
Numeric readout: 2.07

Compound: Cc1ccc(NC(=O)c2ccc([N+](=O)[O-])cc2)cc1Oc1nccc(-c2ccccc2)n1 [B8]
Parameter measured: Inhibition effect (%) PDGFRβ
Numeric readout: 37.71

Compound: Cc1ccc(NC(=O)CN2CCOCC2)cc1Oc1nccc(-c2cc3ccccc3o2)n1 [E7]
Parameter measured: Inhibition effect (%) PDGFRβ
Numeric readout: 19.39

Compound: Cc1ccc(NC(=O)c2ccccc2)cc1Oc1nccc(-c2ccccc2)n1 [B1]
Parameter measured: Inhibition effect (%) PDGFRβ
Numeric readout: 12.87

Compound: COc1ccc(C(=O)Nc2ccc(C)c(Oc3nccc(-c4ccccc4)n3)c2)cc1 [B5]
Parameter measured: Inhibition effect (%) PDGFRβ
Numeric readout: 19.39

Compound: Cc1ccc(NC(=O)c2ccc(Cl)cc2)cc1Oc1nccc(-c2cccc3ccccc23)n1 [C6]
Parameter measured: Inhibition effect (%) PDGFRβ
Numeric readout: -0.94

Compound: Cc1ccc(NC(=O)c2ccc(Cl)cc2)cc1Oc1nccc(-c2cccnc2)n1 [A6]
Parameter measured: Inhibition effect (%) PDGFRβ
Numeric readout: 35.96

Compound: Cc1ccc(NC(=O)c2cccs2)cc1Oc1nccc(-c2cccc3ccccc23)n1 [C5]
Parameter measured: Inhibition effect (%) PDGFRβ
Numeric readout: 5.08

Compound: CCC(=O)Nc1ccc(C)c(Oc2nccc(-c3cc4ccccc4n3C)n2)c1 [F2]
Parameter measured: Inhibition effect (%) PDGFRβ
Numeric readout: -4.46
